Biological target: pooled human IgG (human IgG1,2,3 and 4)
QUANTITY KIND: Enzyme Activity Endpoint Assay: scIgG (ng/µL)

- PRT-316 (protein) MTITSVWTKGVTPPTPEDFRKNNEDVLHAPYVANQGWYDITKTFDGKDNLLCGAATAGNMLHWWFDQNKEEIERYLKKHPEKQKIIFNNQELFDVKAAIDTKDSQTNSKLFNYFRDKAFPNLSARQLGVMPDLVLDMFINGYYLNLGKTQSTDVNRPYQDKDKRGGIFDAVFTRGDQTTLLTARHDLKNKGLNEISDLIKQELTEGKALALSHTYANVRINHVINLWGADFDAEGNLIAIYVTDSDANASIGMKKYFVGRNANGKVAISAKKIEGDNIGAQVLGLFTLSTGQDIWQKLS: 0
